What half-life was measured for each of the following?
test: Half-life determination in mouse plasma (LC-MS); format: in vitro ADME; conditions: 37° C.
Value expressed in h; do not type the unit.

Data request: Recall and state the measured half-life for CC[C@@H]1NC(=O)[C@H](CCCCN)NC(=O)[C@@H](Cc2c[nH]c3ccccc23)NC(=O)[C@H](Cc2ccc(O)cc2)NC(=O)[C@@H](NC(=O)[C@@H](Cc2ccccc2)NC(=O)CN2CCN(CCNC(=O)COCCOCCNC(=O)COCCOCCNC(=O)COCCOCCNC(=O)COCCOCCNC(=O)CCC(=O)N[C@@H](Cc3ccccc3)C(=O)O[C@]3(CC)C(=O)OCc4c3cc3n(c4=O)Cc4cc5ccccc5nc4-3)CC2)CSSC[C@@H](C(=O)N[C@H](C(N)=O)[C@@H](C)O)NC1=O .
Data returned: 2.4

Data request: Return value of half-life for input CC[C@@H]1NC(=O)[C@H](CCCCN)NC(=O)[C@@H](Cc2c[nH]c3ccccc23)NC(=O)[C@H](Cc2ccc(O)cc2)NC(=O)[C@@H](NC(=O)[C@@H](Cc2ccccc2)NC(=O)CN2CCN(CCNC(=O)COCCOCCNC(=O)COCCOCCNC(=O)COCCOCCNC(=O)COCCOCCNC(=O)CCC(=O)N[C@@H](CC3CCCCC3)C(=O)O[C@]3(CC)C(=O)OCc4c3cc3n(c4=O)Cc4cc5ccccc5nc4-3)CC2)CSSC[C@@H](C(=O)N[C@H](C(N)=O)[C@@H](C)O)NC1=O , no commentary.
Data returned: 2

Data request: Let me know recorded half-life for CC[C@@H]1NC(=O)[C@H](CCCCN)NC(=O)[C@@H](Cc2c[nH]c3ccccc23)NC(=O)[C@H](Cc2ccc(O)cc2)NC(=O)[C@@H](NC(=O)[C@@H](Cc2ccccc2)NC(=O)CN2CCN(CCNC(=O)COCCOCCNC(=O)COCCOCCNC(=O)COCCOCCNC(=O)COCCOCCNC(=O)CCC(=O)NCCCCCCC(=O)O[C@]3(CC)C(=O)OCc4c3cc3n(c4=O)Cc4cc5ccccc5nc4-3)CC2)CSSC[C@@H](C(=O)N[C@H](C(N)=O)[C@@H](C)O)NC1=O , thanks.
Data returned: 16.2

###

target: hSSTR-1 (Homo sapiens); construct: expressed in transfected cells; host or cells: CHO-K1; assay: Somatostatin receptor radioligand binding, hSSTR-1 (CHO-K1 membranes); details: read-out: Ki hSSTR1 ± (SEM)
Sequence (P30872 whole entry): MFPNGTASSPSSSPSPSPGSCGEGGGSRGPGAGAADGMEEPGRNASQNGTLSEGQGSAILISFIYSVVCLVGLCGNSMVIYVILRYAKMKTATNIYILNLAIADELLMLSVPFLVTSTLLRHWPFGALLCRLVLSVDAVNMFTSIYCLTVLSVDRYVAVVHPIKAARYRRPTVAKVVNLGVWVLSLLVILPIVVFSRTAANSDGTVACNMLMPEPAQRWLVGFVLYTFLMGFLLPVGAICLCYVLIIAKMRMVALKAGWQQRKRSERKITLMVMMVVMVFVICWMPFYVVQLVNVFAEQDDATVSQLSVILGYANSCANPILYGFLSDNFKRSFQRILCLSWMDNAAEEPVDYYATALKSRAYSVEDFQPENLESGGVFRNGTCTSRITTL
pKi: −log10 of the molar value.
Property Name: pKi

Data request: Supply measured pKi of CC[C@@H]1NC(=O)[C@H](CCCCN)NC(=O)[C@@H](Cc2c[nH]c3ccccc23)NC(=O)[C@H](Cc2ccc(O)cc2)NC(=O)[C@@H](NC(=O)[C@@H](Cc2ccccc2)NC(=O)CN2CCN(CCNC(=O)COCCOCCNC(=O)COCCOCCNC(=O)COCCOCCNC(=O)COCCOCCNC(=O)CCC(=O)N[C@@H](C(=O)O[C@]3(CC)C(=O)OCc4c3cc3n(c4=O)Cc4cc5ccccc5nc4-3)C(C)C)CC2)CSSC[C@@H](C(=O)N[C@H](C(N)=O)[C@@H](C)O)NC1=O in your reply.
Data returned: ≤ 6.00

###

test: Half-life determination in mouse plasma (LC-MS); assay type: in vitro ADME; conditions: 37° C.
Exercise: state measured half-life for each of the molecules provided.
Report as a plain number; the unit h is understood.

Data request: Look up and report measured half-life for this entry: CC[C@@H]1NC(=O)[C@H](CCCCN)NC(=O)[C@@H](Cc2c[nH]c3ccccc23)NC(=O)[C@H](Cc2ccc(O)cc2)NC(=O)[C@@H](NC(=O)[C@@H](Cc2ccccc2)NC(=O)CN2CCN(CCNC(=O)COCCOCCNC(=O)COCCOCCNC(=O)COCCOCCNC(=O)COCCOCCNC(=O)CCC(=O)N[C@@H](CNC(=O)OCc3ccccc3)C(=O)O[C@]3(CC)C(=O)OCc4c3cc3n(c4=O)Cc4cc5ccccc5nc4-3)CC2)CSSC[C@@H](C(=O)N[C@H](C(N)=O)[C@@H](C)O)NC1=O
Data returned: 2.2

Data request: For the molecule CC[C@@H]1NC(=O)[C@H](CCCCN)NC(=O)[C@@H](Cc2c[nH]c3ccccc23)NC(=O)[C@H](Cc2ccc(O)cc2)NC(=O)[C@@H](NC(=O)[C@@H](Cc2ccccc2)NC(=O)CN2CCN(CCNC(=O)COCCOCCNC(=O)COCCOCCNC(=O)COCCOCCNC(=O)COCCOCCNC(=O)CCC(=O)N[C@@H](CC)C(=O)O[C@]3(CC)C(=O)OCc4c3cc3n(c4=O)Cc4cc5ccccc5nc4-3)CC2)CSSC[C@@H](C(=O)N[C@H](C(N)=O)[C@@H](C)O)NC1=O , report half-life.
Data returned: 6

###

assay: Half-life determination in mouse plasma (LC-MS); assay type: in vitro ADME; settings: 37° C.
Property Name: half-life (h)
Only the number, expressed in h, is required.

Data request: Identify measured half-life associated with CC[C@@H]1NC(=O)[C@H](CCCCN)NC(=O)[C@@H](Cc2c[nH]c3ccccc23)NC(=O)[C@H](Cc2ccc(O)cc2)NC(=O)[C@@H](NC(=O)[C@@H](Cc2ccccc2)NC(=O)CN2CCN(CCNC(=O)COCCOCCNC(=O)COCCOCCNC(=O)COCCOCCNC(=O)COCCOCCNC(=O)CCC(=O)N[C@@H](C)C(=O)O[C@]3(CC)C(=O)OCc4c3cc3n(c4=O)Cc4cc5ccccc5nc4-3)CC2)CSSC[C@@H](C(=O)N[C@H](C(N)=O)[C@@H](C)O)NC1=O
Data returned: 4.6

###

Answer each item with its documented half-life.
Assay: Half-life determination in human plasma (LC-MS)
Type: in vitro ADME
Conditions: 37° C.
Method: Samples containing approximately 50 μg/ml up to and including approximately 500 μg/ml of test compound according to Formula IA or IB or II was added to 450 μl human or mouse plasma, vortexed briefly and incubated at 37° C. […] The recovered supernatant was analyzed by using a liquid chromatography-mass spectrophotometer system (LC-MS) consisting of a Finnigan Deca XP® mass spectrometer with an ESI probe at the positive ion mode. […]
The figure you give is taken to be in h; do not add the unit.

Data request: Query half-life for CC[C@@H]1NC(=O)[C@H](CCCCN)NC(=O)[C@@H](Cc2c[nH]c3ccccc23)NC(=O)[C@H](Cc2ccc(O)cc2)NC(=O)[C@@H](NC(=O)[C@@H](Cc2ccccc2)NC(=O)CN2CCN(CCNC(=O)COCCOCCNC(=O)COCCOCCNC(=O)COCCOCCNC(=O)COCCOCCNC(=O)CCC(=O)NCCCCC(=O)O[C@]3(CC)C(=O)OCc4c3cc3n(c4=O)Cc4cc5ccccc5nc4-3)CC2)CSSC[C@@H](C(=O)N[C@H](C(N)=O)[C@@H](C)O)NC1=O
Data returned: 5

Data request: Return value of half-life for input CC[C@@H]1NC(=O)[C@H](CCCCN)NC(=O)[C@@H](Cc2c[nH]c3ccccc23)NC(=O)[C@H](Cc2ccc(O)cc2)NC(=O)[C@@H](NC(=O)[C@@H](Cc2ccccc2)NC(=O)CN2CCN(CCNC(=O)COCCOCCNC(=O)COCCOCCNC(=O)COCCOCCNC(=O)COCCOCCNC(=O)CCC(=O)N[C@@H](C(=O)O[C@]3(CC)C(=O)OCc4c3cc3n(c4=O)Cc4cc5ccccc5nc4-3)C(C)C)CC2)CSSC[C@@H](C(=O)N[C@H](C(N)=O)[C@@H](C)O)NC1=O , no commentary.
Data returned: 0.3

Data request: Give the reported half-life for this compound. CC[C@@H]1NC(=O)[C@H](CCCCN)NC(=O)[C@@H](Cc2c[nH]c3ccccc23)NC(=O)[C@H](Cc2ccc(O)cc2)NC(=O)[C@@H](NC(=O)[C@@H](Cc2ccccc2)NC(=O)CN2CCN(CCNC(=O)COCCOCCNC(=O)COCCOCCNC(=O)COCCOCCNC(=O)COCCOCCNC(=O)CCC(=O)NCCCCCCC(=O)O[C@]3(CC)C(=O)OCc4c3cc3n(c4=O)Cc4cc5ccccc5nc4-3)CC2)CSSC[C@@H](C(=O)N[C@H](C(N)=O)[C@@H](C)O)NC1=O
Data returned: 8

Data request: Hello, please tell me recorded half-life for this one: CC[C@@H]1NC(=O)[C@H](CCCCN)NC(=O)[C@@H](Cc2c[nH]c3ccccc23)NC(=O)[C@H](Cc2ccc(O)cc2)NC(=O)[C@@H](NC(=O)[C@@H](Cc2ccccc2)NC(=O)CN2CCN(CCNC(=O)COCCOCCNC(=O)COCCOCCNC(=O)COCCOCCNC(=O)COCCOCCNC(=O)CCC(=O)NCCCCCCCCC(=O)O[C@]3(CC)C(=O)OCc4c3cc3n(c4=O)Cc4cc5ccccc5nc4-3)CC2)CSSC[C@@H](C(=O)N[C@H](C(N)=O)[C@@H](C)O)NC1=O
Data returned: 28.6

Data request: Output half-life of CC[C@@H]1NC(=O)[C@H](CCCCN)NC(=O)[C@@H](Cc2c[nH]c3ccccc23)NC(=O)[C@H](Cc2ccc(O)cc2)NC(=O)[C@@H](NC(=O)[C@@H](Cc2ccccc2)NC(=O)CN2CCN(CCNC(=O)COCCOCCNC(=O)COCCOCCNC(=O)COCCOCCNC(=O)COCCOCCNC(=O)CCC(=O)N[C@H](CNC(=O)OCc3ccccc3)C(=O)O[C@]3(CC)C(=O)OCc4c3cc3n(c4=O)Cc4cc5ccccc5nc4-3)CC2)CSSC[C@@H](C(=O)N[C@H](C(N)=O)[C@@H](C)O)NC1=O
Data returned: 0.7
